// reported growth per item
system: SNB-75 CNS; experiment: NCI-60 one-dose screen, 48 h (100 = growth as untreated, 0 = no growth, -100 = all killed); conditions: 10 µM unless noted
This is part of a sample that, as a whole, favours compounds with a hit. Of some 83,000 tested, about 20% had one in any assay.
READOUT_TYPE: growth (%)

molecule="C/C(=N\\NC(=O)CSc1nc2sc3c(c2c(=O)n1-c1ccccc1)CCC(C)C3)c1ccc(Cl)cc1 (stereo not drawn)" units_symbol=% observed_measurement=41.5
molecule=Cc1cc(=O)n2nc(-c3cn(C)c4ccc(Cl)cc34)sc2n1 units_symbol=% observed_measurement=97
molecule=CS(=O)(=O)c1nccc(-c2c(-c3ccc(F)c(OCc4ccccc4)c3)nc3sccn23)n1 units_symbol=% observed_measurement=103
molecule=CC(=O)Nc1ccc(C)c(Nc2cc(-c3ccc(-n4cccn4)cc3)[nH]n2)c1 units_symbol=% observed_measurement=64.2
molecule=CCN(CC)c1ccc2cc(C(=O)NCCOCCOCCOCCn3cc(CCC(=O)Nc4ccc(C(=O)c5ccc(NC(=O)OC(C)(C)C)cc5)cc4)nn3)c(=O)oc2c1 units_symbol=% observed_measurement=94.6
molecule=O=C1c2c(c3c4cc(Br)ccc4[nH]c3c3ccc4ccccc4c23)C(=O)N1CCN1CCCCC1 units_symbol=% observed_measurement=49.6
molecule=Clc1ccc(-c2csc(N/N=C/c3nc4ccccc4n3C3CC3)n2)cc1 units_symbol=% observed_measurement=82.4
molecule=c1ccc(-c2c(-c3ccccc3)[n+](Cc3ccc4ccccc4c3)c(-c3ccccc3)n2Cc2ccc3ccccc3c2)cc1 units_symbol=% observed_measurement=-78.4
